# MEASUREMENT_TARGET: short form of the GPR120 receptor (Homo sapiens, UniProt Q5NUL3)
# Sequence (Q5NUL3 whole entry): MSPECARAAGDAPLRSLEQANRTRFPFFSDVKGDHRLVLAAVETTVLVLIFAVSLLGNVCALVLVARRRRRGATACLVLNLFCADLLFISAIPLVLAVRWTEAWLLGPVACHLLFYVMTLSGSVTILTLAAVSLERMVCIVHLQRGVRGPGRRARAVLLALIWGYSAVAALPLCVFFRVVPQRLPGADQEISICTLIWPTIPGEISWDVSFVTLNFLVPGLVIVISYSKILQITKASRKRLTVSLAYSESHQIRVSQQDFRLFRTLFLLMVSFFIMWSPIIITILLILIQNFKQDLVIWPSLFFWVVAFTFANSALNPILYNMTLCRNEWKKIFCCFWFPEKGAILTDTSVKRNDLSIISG
# Sequence (P32121 whole entry partner): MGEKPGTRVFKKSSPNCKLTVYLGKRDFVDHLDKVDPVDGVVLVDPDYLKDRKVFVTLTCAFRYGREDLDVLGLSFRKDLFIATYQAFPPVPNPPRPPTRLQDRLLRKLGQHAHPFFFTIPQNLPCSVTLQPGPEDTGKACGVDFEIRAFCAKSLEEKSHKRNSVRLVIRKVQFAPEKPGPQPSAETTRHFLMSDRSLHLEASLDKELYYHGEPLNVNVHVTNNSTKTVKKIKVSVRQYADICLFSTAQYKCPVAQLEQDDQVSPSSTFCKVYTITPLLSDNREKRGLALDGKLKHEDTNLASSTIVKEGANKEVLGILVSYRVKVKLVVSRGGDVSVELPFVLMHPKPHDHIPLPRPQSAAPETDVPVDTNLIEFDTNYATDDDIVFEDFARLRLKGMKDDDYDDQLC
# ASSAY_NAME: Human GPR120 DiscoveRx PathHunter Beta-Arrestin assay, Procedure β-arrestin B
For each of the molecules below, state its EC50.
Give the quantity in nM, number only.

Query (molecule): `Cc1ccc(C2=C(COc3ccc(CCC(=O)O)c(F)c3F)CCC2)cc1C` ; field requested: EC50
630

Query (molecule): `Cc1c(CCC(=O)O)ccc(OCC2=C(c3nccs3)CCC2)c1C` ; field requested: EC50
596

Query (molecule): `CCc1ccc(C2=C(COc3c(F)cc(CCC(=O)O)cc3F)CCC2)cc1` ; field requested: EC50
149

Query (molecule): `O=C(O)CCc1ccc(OCC2=C(c3ccc(Cl)cc3)CCC2)cc1` ; field requested: EC50
93

Query (molecule): `Cc1ccc(C2=C(COc3c(F)cc(CCC(=O)O)cc3F)CCCC2)cc1F` ; field requested: EC50
356

Query (molecule): `Cc1cc(CCC(=O)O)ccc1OCC1=C(c2ccc(Cl)cc2)CCCC1` ; field requested: EC50
155

Query (molecule): `Cc1ccc(C2=C(COc3c(F)cc(CCC(=O)O)cc3F)CCC2)cc1N` ; field requested: EC50
1250

Query (molecule): `CCc1ccc(C2=C(COc3ccc(CCC(=O)O)c(F)c3F)CCC2)cc1` ; field requested: EC50
89

Query (molecule): `Cc1ccc(C2=C(COc3ccc(CCC(=O)O)c(C)c3C)CCCC2)cc1F` ; field requested: EC50
352

Query (molecule): `Cc1ccc(C2=C(COc3ccc(CCC(=O)O)c(F)c3F)CCC2)c(C)c1` ; field requested: EC50
648

Query (molecule): `Cc1ccc(C2=C(COc3ccc(CCC(=O)O)c(C)c3C)CCC2)cc1N` ; field requested: EC50
740

Query (molecule): `O=C(O)CCc1ccc(OCC2=C(c3ccc(Cl)cc3)CCC2)c(I)c1` ; field requested: EC50
41

Query (molecule): `O=C(O)CCc1ccc(OCC2=C(c3ccc(Cl)cc3)CCC(F)(F)C2)c(F)c1F` ; field requested: EC50
191

Query (molecule): `Cc1c(CCC(=O)O)ccc(OCC2=C(c3ccc(Br)cc3)CCC2)c1C` ; field requested: EC50
85

Query (molecule): `Cc1c(CCC(=O)O)ccc(OCC2=C(c3ccccc3Cl)CCC2)c1C` ; field requested: EC50
281

Query (molecule): `Cc1c(CCC(=O)O)ccc(OCC2=C(c3ccccc3F)CCC2)c1C` ; field requested: EC50
235

Query (molecule): `Cc1ccc(C2=C(COc3ccc(CCC(=O)O)cc3C)CCC2)cn1` ; field requested: EC50
365

Query (molecule): `Cc1ccc(C2=C(COc3ccc(CCC(=O)O)c(F)c3F)CCC2)cn1` ; field requested: EC50
493

Query (molecule): `Cc1c(CCC(=O)O)ccc(OCC2=C(c3ccccc3Br)CCC2)c1C` ; field requested: EC50
2710

Query (molecule): `Cc1c(CCC(=O)O)ccc(OCC2=C(c3ccc(C(C)C)cc3)CCC2)c1C` ; field requested: EC50
246

Query (molecule): `O=C(O)CCc1c(F)c(F)c(OCC2=C(c3ccc(Cl)cc3)CCC2)c(F)c1F` ; field requested: EC50
397

Query (molecule): `Cc1c(CCC(=O)O)ccc(OCC2=C(c3cccs3)CCC2)c1C` ; field requested: EC50
369

Query (molecule): `Cc1ccc(C2=C(COc3c(F)cc(CCC(=O)O)cc3F)CCC2)cc1` ; field requested: EC50
76

Query (molecule): `Cc1ccc(C2=C(COc3ccc(CCC(=O)O)c(C)c3C)CCCC2)cc1` ; field requested: EC50
478

Query (molecule): `Cc1c(CCC(=O)O)ccc(OCC2=C(c3ccc(C(F)(F)F)cc3)CCCC2)c1C` ; field requested: EC50
625

* * *

# MEASUREMENT_TARGET: human GPR40 (Homo sapiens)
# ASSAY_NAME: GPR40 calcium flux assay, human GPR40
# EXPERIMENTAL_PARAMETERS: HEK293 cells stably expressing GPR40; table does not say human or rat
ENDPOINT_LABEL: EC50

Query (compound): Cc1cc(OCC2=C(Cc3ccccc3)CC(F)(F)C2)c(F)cc1CCC(=O)O [Compound 357] ; field requested: EC50
653 nM

Query (compound): Cc1ccc(C2=C(COc3ccc(CCC(=O)O)cc3)CCC2)c(O)c1 [Compound 213] ; field requested: EC50
> 5000 nM

Query (compound): Cn1cc(C2=C(COc3c(F)cc(CCC(=O)O)cc3F)CC(F)(F)CC2)cn1 [Compound 544] ; field requested: EC50
> 5000 nM

* * *

# MEASUREMENT_TARGET: UniProt:Q5NUL3
# ASSAY_NAME: Human GPR120 DiscoveRx PathHunter Beta-Arrestin assay, Procedure β-arrestin A
For each of the compounds below, state its EC50.
Hi, when you answer, please include the unit after the number. Thanks!

Query (compound): `O=C(O)CCc1ccc(OCC2=C(c3ccc(Cl)cc3)CCC2)cc1Cl` ; field requested: EC50
466 nM

Query (compound): `Cc1c(CCC(=O)O)ccc(OCC2=C(c3cccs3)CC(F)(F)C2)c1C` ; field requested: EC50
435 nM

Query (compound): `Cc1cc(CCC(=O)O)ccc1OCC1=C(c2ccc(F)cc2)CC(F)(F)C1` ; field requested: EC50
78 nM

* * *

# MEASUREMENT_TARGET: human GPR40 (Homo sapiens)
# ASSAY_NAME: GPR40 calcium flux assay, human GPR40
# EXPERIMENTAL_PARAMETERS: HEK293 cells stably expressing GPR40; table does not say human or rat
For each of the compounds below, state its EC50.
Give the quantity in µM, number only.

Query (compound): `CC(C)CC1=C(COc2ccc(CCC(=O)O)c(C(F)(F)F)c2)CCCC1` ; field requested: EC50
0.075

Query (compound): `O=C(O)CCc1ccc(OCC2=C(c3ccc(Cl)cc3)CCCC2)cc1F` ; field requested: EC50
4.02

Query (compound): `O=C(O)CCc1ccc(OCC2=C(C3CCCC3)CCC(F)(F)CC2)cc1C(F)(F)F` ; field requested: EC50
0.103

Query (compound): `Cc1cc(OCC2=C(C3CC3)CCC2)c(F)cc1CCC(=O)O` ; field requested: EC50
2.38

* * *

# MEASUREMENT_TARGET: human GPR40 (Homo sapiens, UniProt O14842)
# Sequence (O14842 whole entry): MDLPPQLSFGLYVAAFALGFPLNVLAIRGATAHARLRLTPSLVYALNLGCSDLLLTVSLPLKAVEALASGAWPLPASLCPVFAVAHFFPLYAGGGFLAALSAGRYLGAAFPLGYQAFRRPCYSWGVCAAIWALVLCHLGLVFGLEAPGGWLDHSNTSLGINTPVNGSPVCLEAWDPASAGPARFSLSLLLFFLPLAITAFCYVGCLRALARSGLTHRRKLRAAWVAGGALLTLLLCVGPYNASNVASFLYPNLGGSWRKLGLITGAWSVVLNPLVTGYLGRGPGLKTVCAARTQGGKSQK
# ASSAY_NAME: GPR40 calcium flux assay, human GPR40
# EXPERIMENTAL_PARAMETERS: HEK293 cells stably expressing GPR40; table does not say human or rat
pEC50: −log10 of the molar value.
ENDPOINT_LABEL: pEC50

Query (compound): `Cc1c(CCC(=O)O)ccc(OCC2=C(c3ccsc3)CCC2)c1C` ; field requested: pEC50
< 5.30

Query (compound): `Cc1c(CCC(=O)O)ccc(OCC2=C(c3ccccc3Cl)CCC2)c1C` ; field requested: pEC50
< 5.00

Query (compound): `Cc1cc(CCC(=O)O)ccc1OCC1=C(c2ccccc2)CC(F)(F)C1` ; field requested: pEC50
< 5.30

Query (compound): Cc1c(CCC(=O)O)ccc(OCC2=C(c3ccc(Cl)cc3)CC(C(C)C)CC2)c1C (stereo not shown) ; field requested: pEC50
< 5.30

* * *

For each of the compounds below, state its EC50.
# MEASUREMENT_TARGET: UniProtKB O14842
# ASSAY_NAME: GPR40 calcium flux assay, human GPR40
# EXPERIMENTAL_PARAMETERS: HEK293 cells stably expressing GPR40; table does not say human or rat

Query (compound): CCOc1ccc(C2=C(COc3ccc(CCC(=O)O)c(C)c3C)CCC2)cc1 [Compound 151] ; field requested: EC50
> 5 µM

Query (compound): Cc1c(CCCC(=O)O)ccc(OCC2=C(c3ccc(Cl)cc3)CCC2)c1C [Compound 127] ; field requested: EC50
> 5 µM

Query (compound): Cc1c(CCC(=O)O)ccc(OCC2=C(c3ccc(F)cc3F)CCC(F)(F)C2)c1C [Compound 534] ; field requested: EC50
> 5 µM

* * *

# MEASUREMENT_TARGET: human GPR40 (Homo sapiens)
# Construct: expressed in transfected cells
# ASSAY_NAME: GPR40 calcium flux assay, human GPR40
# Format: cell-based
# EXPERIMENTAL_PARAMETERS: HEK293 cells stably expressing GPR40; table does not say human or rat
ENDPOINT_LABEL: EC50

Query (compound): `O=C(O)CCc1cc(F)c(OCC2=C(c3ccco3)CCC2)c(F)c1` ; field requested: EC50
> 5 µM

Query (compound): `O=C(O)CCc1cc(Cl)c(OCC2=C(c3ccc(F)cc3)CCC2)c(Cl)c1` ; field requested: EC50
> 5 µM

Query (compound): `Cc1c(CCC(=O)O)ccc(OCC2=C(c3ncccn3)CCC2)c1C` ; field requested: EC50
> 5 µM

Source of measurements: patent US11230526B1
